Assay: Selectivity ratio of IC50 for electric eel AChE to IC50 for horse serum BChE
What Ratio IC50 was measured for each of the following?
Answer as a number with no unit attached.

Problem: Look up Ratio IC50: CCN(CC)Cc1ccc(OCCCCCCCCCCN2CCN(C)CC2)cc1
Result: 16.5

Problem: So what's the measured Ratio IC50 for this one? CCCN(CCC)CCCCCCOc1ccc(CN(CC)CC)cc1
Result: 1.61

Problem: # lookup: Ratio IC50 of CCCCN(CCCC)CCCCCCOc1ccc(CN(CC)CC)cc1
Result: 2.92

Problem: Tell me the measured Ratio IC50 of CCCCN(CCCC)CCCCCOc1ccc(CN(CC)CC)cc1 , please.
Result: 1.29

Problem: Request the reported Ratio IC50 associated with CCN(CC)Cc1ccc(OCCCCCN2CCCCC2)cc1
Result: 6.44

Problem: Please look up its Ratio IC50: CCN(CC)Cc1ccc(OCCCCCCCCCCN2CCCCC2)cc1
Result: 7.66

----------
Reported log10 of IC50 for target or system Acetylcholinesterase (Electrophorus electricus), by entry.
Plainly stated, the numbers are log10 of IC50 given in nM.

Problem: Hi! What's the reported log10 of IC50 for CCCN(CCC)CCCCCCOc1ccc(CN(CC)CC)cc1 on Acetylcholinesterase (Electrophorus electricus)?
Result: 3.33

Problem: Provide value of log10 of IC50 for this record tested with Acetylcholinesterase (Electrophorus electricus): CCN1CCN(CCCCCOc2ccc(CN(CC)CC)cc2)CC1
Sequence (O42275 whole entry): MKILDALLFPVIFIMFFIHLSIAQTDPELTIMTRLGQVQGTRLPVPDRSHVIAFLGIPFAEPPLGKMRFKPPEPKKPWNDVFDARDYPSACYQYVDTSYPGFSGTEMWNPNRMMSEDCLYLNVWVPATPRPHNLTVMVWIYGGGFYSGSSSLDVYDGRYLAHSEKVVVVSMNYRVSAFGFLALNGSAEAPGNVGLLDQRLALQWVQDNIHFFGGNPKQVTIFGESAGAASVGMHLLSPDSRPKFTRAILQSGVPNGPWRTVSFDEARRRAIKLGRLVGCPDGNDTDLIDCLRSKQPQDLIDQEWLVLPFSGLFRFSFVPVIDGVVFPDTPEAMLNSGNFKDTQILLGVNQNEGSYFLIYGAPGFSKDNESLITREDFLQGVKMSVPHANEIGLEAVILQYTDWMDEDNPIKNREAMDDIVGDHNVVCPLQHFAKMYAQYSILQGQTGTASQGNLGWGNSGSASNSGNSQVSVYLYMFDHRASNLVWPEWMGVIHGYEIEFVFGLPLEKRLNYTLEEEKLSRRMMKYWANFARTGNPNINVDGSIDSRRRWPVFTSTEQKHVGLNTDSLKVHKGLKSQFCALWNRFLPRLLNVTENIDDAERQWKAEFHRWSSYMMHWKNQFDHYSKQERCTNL
Result: 3.25

Problem: Notebook: pull reported log10 of IC50 for Acetylcholinesterase (Electrophorus electricus), entry CCCCN(CCCC)CCCCCCOc1ccc(CN(CC)CC)cc1
Result: 2.83

Problem: Fill in the recorded log10 of IC50 for this compound, with Acetylcholinesterase (Electrophorus electricus) as test system: CCN(CC)Cc1ccc(OCCCCN2CCCC2)cc1
Result: 3.53

Problem: Give the reported log10 of IC50 for CCCCN(CCCC)CCCCCCCCOc1ccc(CN(CC)CC)cc1 (system: Acetylcholinesterase (Electrophorus electricus)).
Result: 2.15

Problem: Observed log10 of IC50 on Acetylcholinesterase (Electrophorus electricus) for CCCN(CCC)CCCCCCCCCCOc1ccc(CN(CC)CC)cc1 , please.
Result: 2.53

Problem: Enter reported log10 of IC50 observed with Acetylcholinesterase (Electrophorus electricus) for CCN(CC)Cc1ccc(OCCCCCCCCCCN2CCCCC2)cc1
Result: 2.78

Problem: Query for Acetylcholinesterase (Electrophorus electricus): what log10 of IC50 does the record show for CCN(CC)Cc1ccc(OCCCCN2CCCCC2)cc1 ?
Result: 3.83

Problem: # query: log10 of IC50 | item CCN(CC)Cc1ccc(OCCCCCCCCN2CCCC2)cc1 | system: Acetylcholinesterase (Electrophorus electricus)
Result: 1.92

Problem: Notebook entry, Acetylcholinesterase (Electrophorus electricus) assay: log10 of IC50 of CCN(CC)CCCCCCCCCCOc1ccc(CN(CC)CC)cc1 = ?
Result: 2.49

Problem: Under Acetylcholinesterase (Electrophorus electricus): log10 of IC50 value of CCN(CC)Cc1ccc(OCCCCCCN2CCN(C)CC2)cc1 ?
Result: 3.26

Problem: Lab note: need log10 of IC50 for CCN(CC)CCCCCCCCOc1ccc(CN(CC)CC)cc1 on Acetylcholinesterase (Electrophorus electricus), anyone have it?
Result: 2.15

Problem: Value wanted: log10 of IC50 (Acetylcholinesterase (Electrophorus electricus)) of entry CCN(CC)Cc1ccc(OCCCCN2CCN(C)CC2)cc1
Result: 3.75

Problem: Lookup: log10 of IC50 / Acetylcholinesterase (Electrophorus electricus) / CCN(CC)CCCCOc1ccc(CN(CC)CC)cc1
Result: 4.03

Problem: Requested read-out log10 of IC50, target or system Acetylcholinesterase (Electrophorus electricus), entry CCN1CCN(CCCCCCOc2ccc(CN(CC)CC)cc2)CC1
Result: 3.21

Problem: Form field: log10 of IC50 recorded for CCN(CC)CCCCCCOc1ccc(CN(CC)CC)cc1 with Acetylcholinesterase (Electrophorus electricus) (enter value)
Result: 2.98

Problem: Item CCN(CC)Cc1ccc(OCCN2CCCCC2)cc1 with Acetylcholinesterase (Electrophorus electricus) - log10 of IC50?
Result: 4.14

Problem: Can you look up log10 of IC50 on Acetylcholinesterase (Electrophorus electricus) for CCN(CC)Cc1ccc(OCCCCCN2CCN(C)CC2)cc1 ?
Result: 3.39

Problem: Give recorded log10 of IC50 with Acetylcholinesterase (Electrophorus electricus) for the following compound: CCN(CC)Cc1ccc(OCCCCCCN2CCCCC2)cc1
Result: 2.95

Problem: // map CCN(CC)Cc1ccc(OCCN2CCN(C)CC2)cc1 to recorded log10 of IC50 (system: Acetylcholinesterase (Electrophorus electricus))
Result: 4.06

Problem: Notebook: pull reported log10 of IC50 for Acetylcholinesterase (Electrophorus electricus), entry CCN(CC)Cc1ccc(OCCCCCCCCCCN2CCCC2)cc1
Result: 2.48

Problem: Provide value of log10 of IC50 for this record tested with Acetylcholinesterase (Electrophorus electricus): CCN(CC)Cc1ccc(OCCCCCCCCN2CCN(C)CC2)cc1
Result: 2.32

Problem: # returns recorded log10 of IC50 (system: Acetylcholinesterase (Electrophorus electricus)) for CCCN(CCC)CCCCCOc1ccc(CN(CC)CC)cc1
Result: 3.75

Problem: Short answer please: log10 of IC50, Acetylcholinesterase (Electrophorus electricus), entry CCN(CC)CCCCCOc1ccc(CN(CC)CC)cc1
Result: 3.92

Problem: So what log10 of IC50 did CCN(CC)Cc1ccc(OCCCCCN2CCCC2)cc1 get with Acetylcholinesterase (Electrophorus electricus)?
Result: 2.70

Problem: Quick check: log10 of IC50 on Acetylcholinesterase (Electrophorus electricus), item CCN(CC)Cc1ccc(OCCCCCCN2CCCC2)cc1 ?
Result: 2.64

Problem: Give the reported log10 of IC50 for CCN1CCN(CCCCCCCCOc2ccc(CN(CC)CC)cc2)CC1 (system: Acetylcholinesterase (Electrophorus electricus)).
Result: 1.89

Problem: Observed log10 of IC50 on Acetylcholinesterase (Electrophorus electricus) for CCCN(CCC)CCCCCCCCOc1ccc(CN(CC)CC)cc1 , please.
Result: 2.23

Problem: Query log10 of IC50 on Acetylcholinesterase (Electrophorus electricus) for CCN(CC)Cc1ccc(OCCCCCCCCN2CCCCC2)cc1
Result: 1.96

Problem: // fetch Acetylcholinesterase (Electrophorus electricus) log10 of IC50 for CCCN(CCC)CCCCOc1ccc(CN(CC)CC)cc1
Result: 4.14

Problem: Short answer please: log10 of IC50, Acetylcholinesterase (Electrophorus electricus), entry CCCCN(CCCC)CCCCOc1ccc(CN(CC)CC)cc1
Result: 4.01

Problem: Under Acetylcholinesterase (Electrophorus electricus): log10 of IC50 value of CCN1CCN(CCCCCCCCCCOc2ccc(CN(CC)CC)cc2)CC1 ?
Result: 2.76

Problem: For Acetylcholinesterase (Electrophorus electricus), provide log10 of IC50 of CCCCN(CCCC)CCCCCOc1ccc(CN(CC)CC)cc1 please.
Result: 3.39

Problem: Observed log10 of IC50 on Acetylcholinesterase (Electrophorus electricus) for CCN(CC)Cc1ccc(OCCCCCN2CCCCC2)cc1 , please.
Result: 3.63

Problem: Identify the measured log10 of IC50 of CCCCN(CCCC)CCCCCCCCCCOc1ccc(CN(CC)CC)cc1 for Acetylcholinesterase (Electrophorus electricus).
Result: 2.41

Problem: What value of log10 of IC50 on Acetylcholinesterase (Electrophorus electricus) does CCN(CC)Cc1ccc(OCCCCCCCCCCN2CCN(C)CC2)cc1 have?
Result: 2.73

----------
Experiment: Selectivity ratio of IC50 for electric eel AChE to IC50 for horse serum BChE
Please respond with reported Ratio IC50 for every item in the list.
Simply state the number, no unit and no words.

Problem: Any idea what Ratio IC50 was measured for CCCN(CCC)CCCCCOc1ccc(CN(CC)CC)cc1 ?
Result: 3.13

Problem: Consider the molecule CCN(CC)Cc1ccc(OCCCCCN2CCCC2)cc1 and give its measured Ratio IC50.
Result: 0.32

Problem: // query Ratio IC50 value for entry CCN(CC)Cc1ccc(OCCCCCCCCCCN2CCCC2)cc1
Result: 4.41

Problem: Given the molecule CCN(CC)CCCCCOc1ccc(CN(CC)CC)cc1 , what is its reported Ratio IC50?
Result: 1.89

----------
Target: UniProt P81908
Sequence (P81908 whole entry): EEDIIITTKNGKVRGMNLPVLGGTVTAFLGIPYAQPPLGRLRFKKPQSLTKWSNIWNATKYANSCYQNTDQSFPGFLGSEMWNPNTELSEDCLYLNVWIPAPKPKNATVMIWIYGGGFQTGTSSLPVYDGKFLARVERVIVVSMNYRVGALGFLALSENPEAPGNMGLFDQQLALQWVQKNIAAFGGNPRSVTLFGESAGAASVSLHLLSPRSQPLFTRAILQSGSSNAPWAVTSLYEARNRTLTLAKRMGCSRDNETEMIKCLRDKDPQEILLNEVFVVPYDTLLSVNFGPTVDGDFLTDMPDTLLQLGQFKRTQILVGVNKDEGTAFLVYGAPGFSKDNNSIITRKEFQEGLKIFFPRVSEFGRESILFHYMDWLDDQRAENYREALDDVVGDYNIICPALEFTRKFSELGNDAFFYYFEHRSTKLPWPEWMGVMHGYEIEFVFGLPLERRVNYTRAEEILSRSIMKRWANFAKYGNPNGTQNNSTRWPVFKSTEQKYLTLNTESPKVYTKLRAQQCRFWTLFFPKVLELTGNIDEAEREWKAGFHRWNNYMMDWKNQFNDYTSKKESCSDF
Experiment: Inhibition of horse serum BChE after 15 mins by Ellman's method
Experimental Endpoint: IC50 (nM)
Dear colleague, please return just the value in nM, with no unit written.

Problem: Could you share which IC50 value was measured for CCN(CC)Cc1ccc(OCCCCCCN2CCCCC2)cc1 ?
Result: 1370

Problem: Sample CCCCN(CCCC)CCCCCCCCCCOc1ccc(CN(CC)CC)cc1 — what was its IC50?
Result: 15

Problem: Entry CCN(CC)Cc1ccc(OCCCCCCCCN2CCCCC2)cc1 : reported IC50 = ?
Result: 7.3

Problem: Quick check: IC50 of CCN(CC)Cc1ccc(OCCCCCCN2CCCC2)cc1 ?
Result: 1280

Problem: Would you mind telling me what IC50 value was observed for CCN(CC)CCCCCOc1ccc(CN(CC)CC)cc1 ?
Result: 4420

Problem: Which IC50 is listed for CCN(CC)Cc1ccc(OCCCCCCN2CCN(C)CC2)cc1 ?
Result: 3760

Problem: Bench note: what IC50 did CCCN(CCC)CCCCCCCCCCOc1ccc(CN(CC)CC)cc1 show?
Result: 26

Problem: Looking for the measured IC50 of CCN(CC)Cc1ccc(OCCN2CCN(C)CC2)cc1 , can you help?
Result: 20300

Problem: Item CCN(CC)Cc1ccc(OCCCCCCCCCCN2CCCC2)cc1 has what recorded IC50?
Result: 68

Problem: Bench note: what IC50 did CCN1CCN(CCCCCCCCOc2ccc(CN(CC)CC)cc2)CC1 show?
Result: 14

Problem: Which measured IC50 value corresponds to CCN(CC)Cc1ccc(OCCCCCCCCN2CCN(C)CC2)cc1 ?
Result: 11

Problem: Form field: reported IC50 of CCCCN(CCCC)CCCCCCOc1ccc(CN(CC)CC)cc1
Result: 230

Problem: For CCN(CC)Cc1ccc(OCCN2CCCCC2)cc1 , what is its reported IC50?
Result: 10100

Origin of the recorded values: ChEMBL document CHEMBL1155504
